Biological target: HDAC6 (Homo sapiens)
Construct: purchased Reaction Biology Corporation (assay run by the CRO)
Sequence (Q9UBN7 1-1215): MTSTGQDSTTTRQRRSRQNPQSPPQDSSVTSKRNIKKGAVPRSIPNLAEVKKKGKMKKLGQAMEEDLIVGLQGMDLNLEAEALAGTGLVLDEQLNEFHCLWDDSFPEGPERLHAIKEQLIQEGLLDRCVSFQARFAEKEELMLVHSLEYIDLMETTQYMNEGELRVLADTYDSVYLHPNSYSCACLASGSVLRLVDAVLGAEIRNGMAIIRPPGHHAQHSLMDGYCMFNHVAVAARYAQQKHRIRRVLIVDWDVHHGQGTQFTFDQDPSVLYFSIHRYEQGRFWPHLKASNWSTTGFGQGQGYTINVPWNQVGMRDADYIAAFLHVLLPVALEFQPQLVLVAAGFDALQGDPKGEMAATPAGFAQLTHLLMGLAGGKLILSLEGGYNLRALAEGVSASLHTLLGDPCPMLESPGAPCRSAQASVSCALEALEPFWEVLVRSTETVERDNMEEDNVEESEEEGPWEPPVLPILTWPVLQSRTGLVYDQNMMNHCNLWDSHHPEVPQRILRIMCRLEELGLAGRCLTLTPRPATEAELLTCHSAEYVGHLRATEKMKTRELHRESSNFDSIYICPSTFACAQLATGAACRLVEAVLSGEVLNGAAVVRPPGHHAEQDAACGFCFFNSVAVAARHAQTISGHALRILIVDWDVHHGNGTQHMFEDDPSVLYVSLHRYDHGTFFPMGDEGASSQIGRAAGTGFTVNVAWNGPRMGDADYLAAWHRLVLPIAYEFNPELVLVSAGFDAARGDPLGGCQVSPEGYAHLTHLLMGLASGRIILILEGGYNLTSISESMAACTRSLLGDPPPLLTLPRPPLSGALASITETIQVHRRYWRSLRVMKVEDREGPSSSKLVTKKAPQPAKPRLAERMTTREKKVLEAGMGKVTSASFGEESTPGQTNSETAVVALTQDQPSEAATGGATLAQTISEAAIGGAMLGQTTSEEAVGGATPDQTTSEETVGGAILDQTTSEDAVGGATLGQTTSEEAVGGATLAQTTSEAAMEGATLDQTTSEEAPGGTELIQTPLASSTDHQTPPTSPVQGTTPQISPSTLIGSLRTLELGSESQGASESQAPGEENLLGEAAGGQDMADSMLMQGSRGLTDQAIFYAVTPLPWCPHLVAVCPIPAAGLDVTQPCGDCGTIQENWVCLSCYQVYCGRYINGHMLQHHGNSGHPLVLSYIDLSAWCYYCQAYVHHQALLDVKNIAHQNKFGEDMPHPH
Test: HDAC6 inhibition, full IC50 measurement (Reaction Biology; fluorogenic p53 peptide RHKK(Ac)AMC)
Assay type: biochemical
Settings: Conc. 4.57E-09 M, t2
Description: The assay was performed using 50 μM fluorogenic peptide from p53 residues 379-382 [RHKK(Ac)AMC] in a base reaction buffer of 50 mM Tris-HCl at pH 8.0, 137 mM NaCl, 2.7 mM KCl, 1 mM MgCl2, and freshly added 1 mg/ml BSA and 1% DMSO. […] Peptide concentrations were calculated based on mass of lyophilized peptide and its molecular weight. […]
Peptide text beside a SMILES is read from it.
If the reported HDAC6 activity raw data (signal) equals or exceeds 500000, assign Yes. If not, assign No.

Take a look at these entries with their results.
compound	assigned-class
CCCC[C@H]1NC(=O)[C@H](CC(=O)O)NC(=O)[C@@H](CO)NC(=O)[C@@H](C)NC(=O)[C@H](CCCCN)NC(=O)[C@@H](CCCCN)NC(=O)[C@H](Cc2ccccc2)NC(=O)[C@H](CCCCCS)NC1=O [des4.3.1.2, SHA-Phe-dLys-Lys-dAla-dSer-Asp-dNle] (HELM PEPTIDE1{D.[CCCC[C@@H](N[*:1])C(=O)[*:2]].[O=C([C@H](CCCCCS)N[*:1])[*:2]].F.[dK].K.[dA].[dS]}$PEPTIDE1,PEPTIDE1,1:R1-8:R2$$$V2.0)	Yes
N=C(N)NCCC[C@H]1NC(=O)[C@@H]2CCCN2C(=O)[C@H](CO)NC(=O)[C@@H](Cc2c[nH]cn2)NC(=O)[C@H](CCCCCS)NC(=O)[C@H](CCCCN)NC(=O)[C@H](Cc2ccc(O)cc2)NC(=O)[C@H]2CCCN2C(=O)[C@@H](CCC(N)=O)NC1=O [des3.1.0, SHA-dHis-Ser-Pro-dArg-dGln-dPro-Tyr-Lys] (HELM PEPTIDE1{K.[O=C([C@H](CCCCCS)N[*:1])[*:2]].[dH].S.P.[dR].[dQ].[dP].Y}$PEPTIDE1,PEPTIDE1,1:R1-9:R2$$$V2.0)	No
CSCC[C@H]1NC(=O)[C@@H](CO)NC(=O)[C@H](CC(N)=O)NC(=O)[C@H](CC(=O)O)NC(=O)[C@@H]([C@H](C)O)NC(=O)[C@H](Cc2c[nH]c3ccccc23)NC(=O)[C@H](CCCCCS)NC(=O)[C@H](CCCCN)NC(=O)[C@@H](CC(=O)O)NC1=O [des2.1.1, SHA-Trp-dThr-Asp-Asn-dSer-dMet-dAsp-Lys] (HELM PEPTIDE1{D.N.[dS].[dM].[dD].K.[O=C([C@H](CCCCCS)N[*:1])[*:2]].W.[dT]}$PEPTIDE1,PEPTIDE1,1:R1-9:R2$$$V2.0)	No

Here's the next entry for you.
Check the entry CCCC[C@H]1NC(=O)[C@H](Cc2ccccc2)NC(=O)[C@H](CCCCCS)NC(=O)[C@@H](CO)NC(=O)[C@H](CC(=O)O)NC(=O)[C@@H](CO)NC(=O)[C@@H](C)NC(=O)[C@H](CCCCN)NC1=O [des4.3.1.1, SHA-Phe-dNle-Lys-dAla-dSer-Asp-dSer] (HELM PEPTIDE1{D.[dS].[O=C([C@H](CCCCCS)N[*:1])[*:2]].F.[CCCC[C@@H](N[*:1])C(=O)[*:2]].K.[dA].[dS]}$PEPTIDE1,PEPTIDE1,1:R1-8:R2$$$V2.0) : does HDAC6 activity raw data (signal) equal or exceed 500000?
Yes

====

Catalogue of HDAC3 activity raw data (signal) readings, one per entry.
Target: HDAC3 (Homo sapiens, UniProt O15379)
Construct: purchased Reaction Biology Corporation (assay run by the CRO)
Sequence (O15379 whole entry): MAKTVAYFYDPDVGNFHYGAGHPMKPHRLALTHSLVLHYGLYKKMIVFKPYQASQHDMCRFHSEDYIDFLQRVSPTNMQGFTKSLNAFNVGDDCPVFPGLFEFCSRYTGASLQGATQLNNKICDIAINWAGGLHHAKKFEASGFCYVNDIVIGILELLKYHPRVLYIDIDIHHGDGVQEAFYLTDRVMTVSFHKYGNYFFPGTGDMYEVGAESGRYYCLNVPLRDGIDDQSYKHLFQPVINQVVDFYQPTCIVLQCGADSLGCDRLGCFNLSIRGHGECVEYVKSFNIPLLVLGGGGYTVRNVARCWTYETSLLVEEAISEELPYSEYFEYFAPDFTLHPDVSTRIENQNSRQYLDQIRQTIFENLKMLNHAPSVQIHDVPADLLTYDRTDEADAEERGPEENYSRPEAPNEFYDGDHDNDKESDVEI
Sequence (Q9Y618 395-489 partner limits assumed): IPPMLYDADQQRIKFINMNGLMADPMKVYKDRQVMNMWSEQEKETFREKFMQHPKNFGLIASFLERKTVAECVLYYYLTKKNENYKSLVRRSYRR
Experiment: HDAC3 inhibition, full IC50 measurement (Reaction Biology; fluorogenic p53 peptide RHKK(Ac)AMC)
Type: biochemical
Conditions: Conc. 1.52E-09 M, t2
Peptide text beside a SMILES is read from it.
The response must contain the number and no unit.

molecule	HDAC3 activity raw data (signal)
CC(C)[C@@H]1NC(=O)[C@H](CCCNC(=N)N)NC(=O)[C@@H](CC(=O)O)NC(=O)[C@H](CO)NC(=O)[C@@H](CO)NC(=O)[C@@H](CCC(=O)O)NC(=O)[C@H](Cc2ccc(O)cc2)NC(=O)[C@H](CCCCCS)NC1=O [des4.2.0, SHA-Tyr-dGlu-dSer-Ser-dAsp-Arg-Val] (HELM PEPTIDE1{R.V.[O=C([C@H](CCCCCS)N[*:1])[*:2]].Y.[dE].[dS].S.[dD]}$PEPTIDE1,PEPTIDE1,1:R1-8:R2$$$V2.0)	1359852

The molecule identified as CCCC[C@H]1NC(=O)[C@H](Cc2ccccc2)NC(=O)[C@H](CCCCCS)NC(=O)[C@@H](CCCNC(=N)N)NC(=O)[C@H](CC(=O)O)NC(=O)[C@@H](CO)NC(=O)[C@@H](C)NC(=O)[C@H](CCCCN)NC1=O [des4.3.1, SHA-Phe-dNle-Lys-dAla-dSer-Asp-dArg] (HELM PEPTIDE1{D.[dR].[O=C([C@H](CCCCCS)N[*:1])[*:2]].F.[CCCC[C@@H](N[*:1])C(=O)[*:2]].K.[dA].[dS]}$PEPTIDE1,PEPTIDE1,1:R1-8:R2$$$V2.0) registered its HDAC3 activity raw data (signal) at 1274974

The molecule identified as NCCCC[C@@H]1NC(=O)[C@@H]2CCCN2C(=O)[C@H](CC(N)=O)NC(=O)[C@H](CCCCCS)NC(=O)CNC(=O)[C@H](Cc2c[nH]c3ccccc23)NC(=O)[C@@H](CCCCN)NC(=O)[C@H](CCC(N)=O)NC1=O [des1.1.0, SHA-Asn-Pro-Lys-Gln-dLys-Trp-Gly] (HELM PEPTIDE1{G.[O=C([C@H](CCCCCS)N[*:1])[*:2]].N.P.K.Q.[dK].W}$PEPTIDE1,PEPTIDE1,1:R1-8:R2$$$V2.0) registered its HDAC3 activity raw data (signal) at 1448071

====

Catalogue of HDAC6 activity raw data (signal) readings, one per entry.
Target: HDAC6 (Homo sapiens, UniProt Q9UBN7)
Construct: purchased Reaction Biology Corporation (assay run by the CRO)
Assay: HDAC6 inhibition, full IC50 measurement (Reaction Biology; fluorogenic p53 peptide RHKK(Ac)AMC)
Format: biochemical
Conditions: Conc. 3.70E-07 M, t2
Peptide text beside a SMILES is read from it.
The response must contain the number and no unit.

For orientation, consider the following solved cases.
compound	measurement-target	HDAC6 activity raw data (signal)
N=C(N)NCCC[C@H]1NC(=O)[C@@H]2CCCN2C(=O)[C@H](CO)NC(=O)[C@@H](Cc2c[nH]cn2)NC(=O)[C@H](CCCCCS)NC(=O)[C@H](CCCCN)NC(=O)[C@H](Cc2ccc(O)cc2)NC(=O)[C@H]2CCCN2C(=O)[C@@H](CCC(N)=O)NC1=O [des3.1.0, SHA-dHis-Ser-Pro-dArg-dGln-dPro-Tyr-Lys] (HELM PEPTIDE1{K.[O=C([C@H](CCCCCS)N[*:1])[*:2]].[dH].S.P.[dR].[dQ].[dP].Y}$PEPTIDE1,PEPTIDE1,1:R1-9:R2$$$V2.0)	HDAC6 (Homo sapiens, UniProt Q9UBN7)	130317
CC(C)[C@@H]1NC(=O)[C@H](CCCNC(=N)N)NC(=O)[C@@H](CC(=O)O)NC(=O)[C@H](CO)NC(=O)[C@@H](CO)NC(=O)[C@@H](CCC(=O)O)NC(=O)[C@H](Cc2ccc(O)cc2)NC(=O)[C@H](CCCCCS)NC1=O [des4.2.0, SHA-Tyr-dGlu-dSer-Ser-dAsp-Arg-Val] (HELM PEPTIDE1{R.V.[O=C([C@H](CCCCCS)N[*:1])[*:2]].Y.[dE].[dS].S.[dD]}$PEPTIDE1,PEPTIDE1,1:R1-8:R2$$$V2.0)	HDAC6 (Homo sapiens, UniProt Q9UBN7)	190636
NCCCC[C@@H]1NC(=O)[C@@H]2CCCN2C(=O)[C@H](CC(N)=O)NC(=O)[C@H](CCCCCS)NC(=O)CNC(=O)[C@H](Cc2c[nH]c3ccccc23)NC(=O)[C@@H](CCCCN)NC(=O)[C@H](CCC(N)=O)NC1=O [des1.1.0, SHA-Asn-Pro-Lys-Gln-dLys-Trp-Gly] (HELM PEPTIDE1{G.[O=C([C@H](CCCCCS)N[*:1])[*:2]].N.P.K.Q.[dK].W}$PEPTIDE1,PEPTIDE1,1:R1-8:R2$$$V2.0)	HDAC6 (Homo sapiens, UniProt Q9UBN7)	39167
CC(C)C[C@H]1NC(=O)[C@H](Cc2c[nH]c3ccccc23)NC(=O)[C@H](CCCCCS)NC(=O)[C@@H](Cc2ccc(O)cc2)NC(=O)[C@@H](C(C)C)NC(=O)[C@H](Cc2c[nH]cn2)NC(=O)CNC(=O)CNC(=O)[C@@H](CO)NC1=O [des2.2.0, SHA-Trp-dLeu-dSer-Gly-Gly-His-dVal-dTyr] (HELM PEPTIDE1{G.G.H.[dV].[dY].[O=C([C@H](CCCCCS)N[*:1])[*:2]].W.[dL].[dS]}$PEPTIDE1,PEPTIDE1,1:R1-9:R2$$$V2.0)	HDAC6 (Homo sapiens, UniProt Q9UBN7)	121991

Could you now look at the following compound, please?
Lab entry: HDAC6 (Homo sapiens, UniProt Q9UBN7) assay, compound CCCC[C@H]1NC(=O)[C@H](CC(=O)O)NC(=O)[C@@H](CO)NC(=O)[C@@H](C)NC(=O)[C@H](CCCCN)NC(=O)[C@@H](CCCCN)NC(=O)[C@H](Cc2ccccc2)NC(=O)[C@H](CCCCCS)NC1=O [des4.3.1.2, SHA-Phe-dLys-Lys-dAla-dSer-Asp-dNle] (HELM PEPTIDE1{D.[CCCC[C@@H](N[*:1])C(=O)[*:2]].[O=C([C@H](CCCCCS)N[*:1])[*:2]].F.[dK].K.[dA].[dS]}$PEPTIDE1,PEPTIDE1,1:R1-8:R2$$$V2.0) , HDAC6 activity raw data (signal) = 1367836
